- ASSAY PROCEDURE: Nrf2 qHTS screen for inhibitors; note: nearly all actives have a fitted effect of over 60% in size
- APPLIED CONDITIONS: A549 ARE-Fluc reporter, luciferase luminescence, 18-24 h; series mostly up to 46 µM
In all, about 360,000 compounds went through this assay and about 7,500 (2.1%) were called active. About 20% were inconclusive and are not listed. Calls come from the whole dose curve; as a rule, active = well fitted inhibition curve with a large enough effect; inconclusive = small, poorly fitted or top-dose-only effect, or effect the other way; inactive = flat fitted curve, though single readings scatter. The entries come from a sample that favours actives as a whole.
Outcomes: 1.0 = active, 0.0 = inactive

- COc1ccc(C(=O)NNC(=S)NC(=O)c2ccccc2[N+](=O)[O-])cc1: 0.0
- O=C(CCc1ccccc1)NNC(=O)c1ccc(Br)cc1: 0.0
- CN(C)C(=O)c1coc2nc3ccccc3nc12: 0.0
- COc1ccc(C(=O)NC(=S)NNC(=O)c2c(-c3ccccc3)noc2C)cc1: 1.0
- C=Cc1ccc(Cn2c(C(=O)O)c(CNC3CCCC3)c3ccc(C)cc32)cc1: 0.0
- CNC(=O)c1cccc2nc3ccccc3nc12: 1.0
